biological target: human TRPV4 (Homo sapiens, UniProt Q9HBA0); construct: expressed in transfected cells; host or cells: HEK-293-MSR-II cells transduced with 1% BacMam virus; test: Ligand-gated assay (FLIPR calcium, Fluo4); format: cell-based; settings: HEK-293-MSR-II cells transduced with BacMam human TRPV4; inhibition of agonist (EC80)-induced activation; read-out: Human TRPV4 FLIPR pIC50 (converted)
Sequence (Q9HBA0 whole entry): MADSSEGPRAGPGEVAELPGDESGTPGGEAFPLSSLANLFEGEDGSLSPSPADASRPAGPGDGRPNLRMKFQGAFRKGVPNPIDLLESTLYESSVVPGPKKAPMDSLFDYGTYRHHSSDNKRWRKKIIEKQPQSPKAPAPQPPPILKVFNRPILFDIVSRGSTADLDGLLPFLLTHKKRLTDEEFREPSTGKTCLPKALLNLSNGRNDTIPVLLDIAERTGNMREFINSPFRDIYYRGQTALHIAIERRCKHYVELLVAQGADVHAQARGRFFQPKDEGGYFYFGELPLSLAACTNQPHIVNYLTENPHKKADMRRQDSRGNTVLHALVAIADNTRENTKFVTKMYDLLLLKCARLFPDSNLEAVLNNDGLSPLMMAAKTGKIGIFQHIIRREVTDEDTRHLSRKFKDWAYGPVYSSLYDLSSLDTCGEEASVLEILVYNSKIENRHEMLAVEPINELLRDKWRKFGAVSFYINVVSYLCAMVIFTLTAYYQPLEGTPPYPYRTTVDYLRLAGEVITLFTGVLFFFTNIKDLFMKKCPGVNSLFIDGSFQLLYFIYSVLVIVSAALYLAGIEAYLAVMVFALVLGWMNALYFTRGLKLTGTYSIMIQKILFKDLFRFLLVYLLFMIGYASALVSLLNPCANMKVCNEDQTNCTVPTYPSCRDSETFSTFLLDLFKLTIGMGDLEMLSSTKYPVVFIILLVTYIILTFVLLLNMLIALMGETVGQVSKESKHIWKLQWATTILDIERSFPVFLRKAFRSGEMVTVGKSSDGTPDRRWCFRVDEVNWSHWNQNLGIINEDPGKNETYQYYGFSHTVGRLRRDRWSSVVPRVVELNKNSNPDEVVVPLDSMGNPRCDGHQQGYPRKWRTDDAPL
endpoint name: IC50 (nM)
Lab book: enter the figure in nM, no units written.

Enquiry: # get_value(readout='IC50', item= CCOc1cc2nc(-c3cccc(C(F)(F)F)c3)c(CN3CCC(N4CCOCC4)CC3)c(C(=O)N[C@H](c3ccccc3)C(F)(F)F)c2cc1S(=O)(=O)CC )
Return: 10

Enquiry: # get_value(readout='IC50', item= COc1cc2nc(-c3cccc(C(F)(F)F)c3)c(CN3CCC(N4CCOCC4)CC3)c(C(=O)N[C@H](c3ccccc3)C(F)(F)F)c2cc1S(=O)(=O)C(C)C )
Return: 6.31

Enquiry: # get_value(readout='IC50', item= CC(C)Oc1cc2nc(-c3cccc(C(F)(F)F)c3)c(CN3CCC(N4CCOCC4)CC3)c(C(=O)N[C@H](c3ccccc3)C(F)(F)F)c2cc1S(C)(=O)=O )
Return: 6.31

Enquiry: # get_value(readout='IC50', item= CC1CN(Cc2c(-c3cccc(C(F)(F)F)c3)nc3ccc(S(=O)(=O)C(C)C)cc3c2C(=O)N[C@H](c2ccccc2)C(F)(F)F)CCC1N1CCOCC1 (mixture of isomers) )
Return: 10

Enquiry: # get_value(readout='IC50', item= COc1cc2nc(-c3cccc(C(F)(F)F)c3)c(CN3CCC(N4CCCCC4)CC3)c(C(=O)N[C@H](c3ccccc3)C(F)(F)F)c2cc1S(=O)(=O)C(C)C )
Return: 3.98

Enquiry: # get_value(readout='IC50', item= CS(=O)(=O)c1ccc2nc(-c3cccc(C(F)(F)F)c3)c(CN3CCC(N4CCCCC4)CC3)c(C(=O)N[C@H](c3ccccc3)C(F)(F)F)c2c1 )
Return: 3.16

Enquiry: # get_value(readout='IC50', item= CCOc1cc2nc(-c3cccc(C(F)(F)F)c3)c(CN3CCC(N4CCOCC4)CC3)c(C(=O)N[C@H](c3ccccc3)C(F)(F)F)c2cc1S(=O)(=O)C(C)C )
Return: 6.31

Enquiry: # get_value(readout='IC50', item= CCS(=O)(=O)c1cc2c(C(=O)N[C@H](c3ccccc3)C(F)(F)F)c(CN3CCC(N4CCCCC4)CC3)c(-c3cccc(C(F)(F)F)c3)nc2cc1OC )
Return: 6.31

Origin of measurements: patent US8658636B2
